Where do the numbers come from? From the kinase profiling compilation of Christmann-Franck et al. (2016).

Target: DYRK1A (human)
Assay: radiometric filter-binding kinase assay
Conditions: compound 10.0 µM
Measured residual activity accompanies every entry in the list below.
Measured quantity: residual activity (%)

| Molecule | Measured quantity | Reported value |
| --- | --- | --- |
| Cc1ccc(-c2ccc3c(ccc4sc5c(c43)NC[C@@H](C)NC5=O)n2)cn1 | residual activity | 8 |
| NCC(=O)Nc1ccc(-n2nc(C(F)(F)F)cc2-c2ccc3c(ccc4ccccc43)c2)cc1 | residual activity | 82 |
| O=C(N[C@@H](COc1ccc2[nH]c(=O)[nH]c2c1)c1ccccc1)c1cccn(Cc2ccc(F)c(F)c2)c1=O | residual activity | 79 |
| CC(C)C[C@H](NC(=O)CNC(=O)c1cc(Cl)ccc1Cl)B1OC(=O)CC(CC(=O)O)(C(=O)O)O1 (stereo partly specified) | residual activity | 88 |
| O=C(O)c1ccc(-c2c[nH]c3ncc(-c4ccccc4)cc23)cc1C1CCCC1 | residual activity | 8 |
| COc1ccc2c(c1)c1c3c(c4c5ccccc5n(C)c4c1n2CC(O)CN(C)C)C(=O)NC3=O (stereo unspecified) | residual activity | 41 |
